tested on: KM12 colon; assay: NCI tumour cell line growth inhibition, 48 h
reportedEndpoint: TGI

## Task GET /values?readout=TGI&item= `CC(C)C(=O)NS(=O)(=O)c1ccccc1`
## Result > 100 µM

## Task // returns reported TGI for input `COc1ccc2c(c1)C(=O)OCCC2`
## Result > 100 µM

## Task Fill in the blank: the reported TGI of `CC1=CCC(C)=Nc2nc3ccccc3n21` is ____.
## Result > 100 µM

## Task Requested field: TGI. Item: `O=C1C=CC(=O)c2c1ccc1c3ccccc3n(-c3cccc([N+](=O)[O-])c3)c21`
## Result > 10 µM

## Task Returns the measured TGI for the input compound. Input: `O=C(Nc1ccc(F)cc1)c1cc(S(=O)(=O)Nc2nc3ccccc3o2)c(SCc2ccccc2)cc1Cl`
## Result 33.9 µM

## Task Look up TGI for this compound: `S=c1[nH]c(=S)c2nnn(-c3ccccc3)c2[nH]1`
## Result > 100 µM

## Task Look up TGI: `COC(=O)[C@H](Cc1c[nH]c2ccccc12)NC(=O)c1ccc(CNC(=O)/C(C)=C/c2ccccc2)cc1`
## Result > 100 µM

## Task Recorded TGI of `CN(C)CCNC(=O)c1ccc2nc3c(nc2c1)C(=O)c1ccccc1-3` , please.
## Result > 100 µM

## Task I'd like to know its TGI. The compound in question is COC(=O)CC1C=CC(C)(OC)OO1 (stereo not drawn)
## Result > 100 µM

## Task Look up TGI: S=C1SSC2N=CC=CC12 (stereo not drawn)
## Result 33 µM

## Task Requested read-out: TGI. Entry: `CCOC(=O)/C=C/[C@H](O[Si](CC)(CC)CC)C(C)(C)C`
## Result > 100 µM

## Task Requested read-out: TGI. Entry: `Cc1cc(C)c(NC(=O)c2sc3nc4c(cc3c2N)CN(Cc2ccccc2)CC4)c(C)c1`
## Result 43.1 µM

## Task Return reported TGI; argument: `NC(=O)OCCn1cc(-c2nc(-c3c[nH]c4ncccc34)cs2)c2ccccc21`
## Result 9.45 µM

## Task I have this compound here, `[N-]=[N+]=Nc1cc(=O)[nH]nc1-c1ccccc1` , and I need its recorded TGI.
## Result > 100 µM

## Task Look at this compound and give its reported TGI. c1ccc2c(c1)c1c(c3ccccc32)CN2CCCC2C1 (stereo not drawn)
## Result 15.7 µM

## Task Reported TGI, compound COc1ccc2[nH]c3c(c2c1)CC(=S)N1CCCC(CC3=O)C1 (stereo not drawn) : ____
## Result > 100 µM

## Task Which TGI reading was recorded for the compound O=C(O)CC(NC(=O)CP(=O)(O)O)C(=O)O (stereo not drawn) ?
## Result > 10000 µM

## Task Endpoint output: TGI of `CC(=O)[O][Ga]([Br])[O]C(C)=O` . Value?
## Result > 100 µM
